target: Bcl-xL, Q07817; assay: peptide SPOT array, c-Myc-tagged receptor at 1 uM or 100 nM, anti-c-Myc-Cy3
Sequence (Q07817 1-209): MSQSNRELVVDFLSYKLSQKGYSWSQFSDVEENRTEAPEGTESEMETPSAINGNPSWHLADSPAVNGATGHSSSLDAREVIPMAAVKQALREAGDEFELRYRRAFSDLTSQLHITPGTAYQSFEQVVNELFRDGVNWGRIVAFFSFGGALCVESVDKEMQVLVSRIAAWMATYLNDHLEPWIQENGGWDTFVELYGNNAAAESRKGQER
Give measured SPOT signal as a fraction of Bim BH3's signal on the same receptor and array for each item. Keep answers brief.
Give bare numbers.

Answered examples (5):
# lookup: SPOT signal as a fraction of Bim BH3's signal on the same receptor and array of SPYVFNGGTILAIALEDFAIVASDTR [PSMB1] 0.02

# lookup: SPOT signal as a fraction of Bim BH3's signal on the same receptor and array of SSLSDGLPVHLANILDELTQKKKMFK [AGBL2] 0.1

# lookup: SPOT signal as a fraction of Bim BH3's signal on the same receptor and array of DQEEACASRQDHSLASFSTVTARRNP [INCA1] 0.04

# lookup: SPOT signal as a fraction of Bim BH3's signal on the same receptor and array of GELAQVSGLEDRKWVDELFIIIMDML [mTOR] 0.02

# lookup: SPOT signal as a fraction of Bim BH3's signal on the same receptor and array of QRKHEGFERDDAALGDKVNSLGETAE [SPTAN1] 0.08

State the recorded SPOT signal as a fraction of Bim BH3's signal on the same receptor and array for every item in the following list.
1. LDFTFVCPTEDIAFGDRLEEFRSINT [PRDX4]
2. LALLAQPSHLMRQVARSVFGHICSHL [MYBBP1A]

1: 0.06; 2: 0.96
